- assay summary: folding stability dG unfold (combined trypsin and chymotrypsin); higher = more stable
measured property: folding stability dG unfold (kcal/mol)
Field: numeric (kcal/mol). Do not append units.

The following sequences have reported results that may help.
- sequence input: "SAGGGKKYRVTLELTLPDGTKLTLEFEFEVVPPAVPKPVVTTSLDDIAEFDPETGTAIDKKNKKPIPLPSAG [r5_807_TrMRF]"
  folding stability dG unfold [kcal/mol]: 2.66
- sequence input: "SAGGGMTVETTSKETPLPDGSLRRTETITITEPGGKPLTRTTTKIWDPSTGKVLETRPVSNATVVAESSAGG [r13_1008_JUSTAS]"
  folding stability dG unfold [kcal/mol]: -0.187
- sequence input: "SADPGDTVELEFWLPPGMNPEFVEQMEDEIRNILRDLGLEVDVKVEPDPDNGYVPVTITITKEQLKDLFSAG [r14_602_TrROS]"
  folding stability dG unfold [kcal/mol]: 1.82

Task: Dear colleague, I am looking for the recorded folding stability dG unfold of the following sequence: SAGGMNMKPIKKETFTLPDENGNEVKIEIYKLEDGSYIIKITYPSGKTETFIVPDEETAKNLKIEIKPSAGG [r13_109_TrMRF]
Output: 2.62

Task: Subsequent entry: SAIKIEEIKDVNPENKNIRIKIEMPGGPHEIPIPAKSEMDVEEALDLILDWFERHFPPGHKMRIEEIEISAG [r14_422_TrROS]
Output: 0.341

Task: Subsequent entry: SAGGSEALTKNLPGVKEIKIEVEPTEVALSPELAKLLPNLPGVKFTVPSVKIDIKIEYPGTPDGTLSAGGSA [r2_404_TrMRF]
Output: -0.053

----------
- assay summary: folding stability dG unfold from trypsin proteolysis; higher = more stable
Returns met if the recorded folding stability dG unfold is greater than or equal to 2 kcal/mol, and not met otherwise.

Task: Quick check: does SAGGSAGGSKKKNKPAPPVLVVKVEIVKIELSDEELEAIKKNKEKIKEIYLIKIEVTLVEPEESAGGSAGGS [r12_196_TrROS_Hall] have folding stability dG unfold greater than or equal to 2 kcal/mol?
Output: not met

Task: Subsequent entry: SAGGSAKKYIVLAKIKEVKVTKTYKTKNGKKVKVTVKVEIKVEPVKVFKIKKDKNGNWKIEPGEVLSAGGSA [r15_162_TrROS_Hall]
Output: met

Task: Subsequent entry: SAGGSAKGKKTRTITIMAPFDNKEEAREQAEEIADNIMNNLPDDMKIKVEVSWNPEDNYVMATIRISAGGSA [r15_981_TrROS]
Output: not met

Task: Subsequent entry: SAGGSAGGSAGMKELEITIIDKKTGKPLKVKVTLVEVDGKLYLVIEVYKNGKPLETYVLPSAGGSAGGSAGG [r11_631_TrROS_Hall]
Output: met

Task: Subsequent entry: STLLEEAKAQAEAYLKAAGLELAPGDVVTLTVPYPGPLTLEITVHPGEKKLEITATDASTPTTHTLTFDESA [r9_426_JUSTAS]
Output: not met

----------
- assay summary: folding stability dG unfold from trypsin proteolysis; higher = more stable
Attribute: folding stability dG unfold
Field: numeric (kcal/mol). Do not append units.

- sequence input: "SAGGSAGGSAGGEPIYIRINNYYIVINLDDGNIRVYPPMKGKKKKVPANDIKPIDPGDISAGGSAGGSAGGS [r10_709_TrROS]"
  folding stability dG unfold [kcal/mol]: 1.18
- sequence input: "SAGGSAMIEIEIVKPNASPEEAEKLEKEVREKLLEEGVPEEVVKEVNIKVIVKPVKKDKNNNPILESAGGSA [r15_684_JUSTAS]"
  folding stability dG unfold [kcal/mol]: -0.215
- sequence input: "SAGGSAGGSAGDENEKPKPKMQMKMIQIKFPPEDLPELAEEFGIDSVHIMPNGSLFIMVYSAGGSAGGSAGG [r11_64_TrROS]"
  folding stability dG unfold [kcal/mol]: 1.07
- sequence input: "SAGGSAGGSAVITLKPGETITITATITNADGSTVTITEVVRLPDGRLVVRVTNADGETYEFVLSAGGSAGGS [r12_31_TrROS_Hall]"
  folding stability dG unfold [kcal/mol]: 3.54
- sequence input: "SAGATPTTLSFTDPEGKKIANVTVTVLPGGRQEASITNSDSNESYTAEYDPATGTWTLTFPDGTTLTVGSAG [r5_809_JUSTAS]"
  folding stability dG unfold [kcal/mol]: 1.15

Task: Dear colleague, I am looking for the recorded folding stability dG unfold of the following sequence: SIINALREALKDGKPGQEIPIMMPPDGMGELMNWLQDYGFKPKKMEPMPMNNRPMYTHEFTIDPKNGKFRSA [r9_498_TrROS]
Output: -0.0613

Task: Subsequent entry: SAGGSAMVLVRIKLKHPEREEVIEVPAGELLEILEHPELNEHWEIVEIEAREVPPEFVEPEELEEESAGGSA [r15_460_TrMRF]
Output: 0.85

Task: Subsequent entry: SAGGSAGGSAKPQKVELELFPNGELIIRLPETGARIRLKVEVFKDASGNPFFKLEIVDIDPSAGGSAGGSAG [r3_76_TrMRF]
Output: 2.48

----------
- assay summary: folding stability dG unfold from chymotrypsin proteolysis; higher = more stable
measured property: folding stability dG unfold
Number first, unit second.

The following sequences have reported results that may help.
- sequence input: "SAGGSAGSGFEEEAAAAFAASAGAMTLTVVEREPDSYTVATVTRTPGTGAPTVTVTTLSPETLAAASAGGSA [r15_156_JUSTAS]"
  folding stability dG unfold: "0.425 kcal/mol"
- sequence input: "SAGGSAGGSAGGAPVTVIPVKKDNPEVREKTAKELKEKAKEIDPSNIKITIEKGVVTLESAGGSAGGSAGGS [r10_182_JUSTAS]"
  folding stability dG unfold: "0.263 kcal/mol"

Task: Dear colleague, I am looking for the recorded folding stability dG unfold of the following sequence: SAGGSAGGSALEIPFPIKDVKWERNPDGSRTRTFYLKNGWRASLIFNPKNGQMQIDIEPLDSAGGSAGGSAG [r3_438_TrROS]
Output: 1.57 kcal/mol

Task: Subsequent entry: SALDVPPDARVYVFRLRYPVPPGVSAADVAARVRAELSERFGPDVEIVVTVTPDPETGEVLVEAVVVEPVSA [r9_657_TrMRF]
Output: 4.05 kcal/mol

Task: Subsequent entry: SAGGSAGGSAGKMLLIEIEVDGKKYLIEIEVPEGEEITPEELAKLLGIPNVKVKVYELEESAGGSAGGSAGG [r11_219_TrROS_Hall]
Output: 3.41 kcal/mol

Task: Subsequent entry: SAGGSAGGSKTIEIVVPPNTTPEEIAKKLKELFPDAKITSVEVYVDKKTKKIVYVKVKIEVKPSAGGSAGGS [r12_822_TrROS_Hall]
Output: 3.82 kcal/mol

Task: Subsequent entry: SAGGSAGGGMLNGLLEKLLLAEPVEVDPVTTTVTPSPNGTVTTTPVYSTADDSVLTETQTTPVASAGGSAGG [r6_326_JUSTAS]
Output: -0.574 kcal/mol

Task: Subsequent entry: SARIRFPDGKPIDMEIVNIHRTPNGLTITIVLRHKDEYRVITFEIPPDGEIRIKSVERVPLPPGDPALVSAG [r14_13_TrROS]
Output: 3.37 kcal/mol

Task: Subsequent entry: SAGGSAGGSAGGKVLKIKFSSIEEILEYIKNNDSVTIVVLDENDNPIGTITVEVKPGSLSAGGSAGGSAGGS [r10_193_TrMRF]
Output: 2.89 kcal/mol

----------
- assay summary: folding stability dG unfold (combined trypsin and chymotrypsin); higher = more stable
Attribute: folding stability dG unfold
Field: numeric (kcal/mol). Do not append units.

The following sequences have reported results that may help.
- sequence input: "SAGGSAGGPLVVILPDPETGLFHVRVRYPDGTVESLGPFPSLEEALEALPSEGLGRVEVRPYLKSAGGSAGG [r6_307_TrMRF]"
  folding stability dG unfold, kcal/mol: 1.28
- sequence input: "SAGGSAGGSKTILIVLPPGEELTPEQLKALAAALPPDATLTILVYDPETKELHVFTFKLPEGLSAGGSAGGS [r12_913_TrROS_Hall]"
  folding stability dG unfold, kcal/mol: 3.87
- sequence input: "SAGPEKPFDIVIVEVKSMEVHEDPNGRRSVRIPVVARIPGGYYIRFEIWINPPTGNVSIDWEIVPLDDSAGG [r19_320_TrROS]"
  folding stability dG unfold, kcal/mol: 3.82
- sequence input: "SAGGSMLIKIKLPKNNPLRDKIVEKLKKSPYVKDVKVKRLKELPNYEIFLIEVDGDPKVADEIKKLASAGGS [r16_394_TrMRF]"
  folding stability dG unfold, kcal/mol: 2.83
- sequence input: "SAGMPLPAEELAERLAKEIEESTDYKVSIEEIKPEGEYVIIKVRVELPEKYKDKGYEEEEFVAIFPGDLSAG [r5_970_TrMRF]"
  folding stability dG unfold, kcal/mol: 0.702

// below: folding stability dG unfold requested for another sequence
Task: Dear colleague, I am looking for the recorded folding stability dG unfold of the following sequence: SAGGSAGGSAGGSVIEVKDPNGKKYIIIKTPDPNVYPVTVIPPDGTTTVTPVSDYSKLLSSAGGSAGGSAGG [r7_769_JUSTAS]
Output: -0.527
